This collection of values is drawn from PubChem BioAssay.

Target: Neurogenic locus notch homolog protein 2 (Homo sapiens)
Assay: Notch2 binders on small-molecule microarrays, primary screen, biochemical, small-molecule microarray, 635 nm fluorescence, stem cell growth factors (AID 1073)
Conditions: Notch2 binding, higher = more signal
Would you mind telling me the reported composite z-score of each entry?
Numbers only.

COc1cccc([C@@H]2[C@@H](C)CC[C@H]3C(=O)N(C)[C@@H](C(C)C)C(=O)N23)c1
0.188
O=C1O[C@@H](c2ccccc2)[C@@H](c2ccccc2)N2[C@@H](c3ccc(O)cc3)[C@]3(C(=O)Nc4ccc(C#CC5(O)CCCCCC5)cc43)[C@@H](C(=O)Nc3nc4ccccc4s3)[C@H]12
1.49
C=C(COC)C(=O)CC[C@H](OC(=O)c1ccccc1-c1ccccc1C(=O)O)c1cccc(OCCO)c1
0.0421

Checklist item: composite z-score tested on Neurogenic locus notch homolog protein 2 (Homo sapiens), entry "CCCC[C@H]1OB(O)C[C@H]2C1=C(COC)C[C@H]1C(=O)N(Cc3ccccc3)C(=O)[C@H]12" , value? 0.908

* * *

Biological target: NADPH oxidase 4 (Homo sapiens) (UniProt Q9NPH5)
Sequence (Q9NPH5 whole entry, looked up): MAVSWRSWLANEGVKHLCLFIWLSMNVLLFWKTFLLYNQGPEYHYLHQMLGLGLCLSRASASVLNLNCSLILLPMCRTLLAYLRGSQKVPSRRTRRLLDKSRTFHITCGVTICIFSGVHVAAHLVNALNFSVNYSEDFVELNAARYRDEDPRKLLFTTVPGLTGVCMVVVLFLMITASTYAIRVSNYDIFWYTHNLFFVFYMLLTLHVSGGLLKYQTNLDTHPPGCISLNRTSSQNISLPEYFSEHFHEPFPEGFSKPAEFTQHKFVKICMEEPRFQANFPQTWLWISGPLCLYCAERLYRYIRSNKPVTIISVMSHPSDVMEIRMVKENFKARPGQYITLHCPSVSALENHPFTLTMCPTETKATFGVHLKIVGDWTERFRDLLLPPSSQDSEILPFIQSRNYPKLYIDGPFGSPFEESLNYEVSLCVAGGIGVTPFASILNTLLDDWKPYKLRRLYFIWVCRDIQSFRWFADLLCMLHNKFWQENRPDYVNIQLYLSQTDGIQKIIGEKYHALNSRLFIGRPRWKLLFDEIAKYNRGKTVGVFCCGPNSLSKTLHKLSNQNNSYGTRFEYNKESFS
Experiment: NOX4-dependent H2O2 signal modulators, primary screen, NOX inhibitor project, cell-based, HEK293-NOX4, tetracycline-induced, Amplex Red fluorescence (AID 1160)
Details: 45 min, higher = more signal, called active from +8 up or from −8 down
Field: z-score. Provide a value for each of the compounds that follow.
Numbers only.

Please review the entries below; each comes with its answer.
O=C1C2C=CC(C(O)C(c3ccccc3)c3ccccc3)N(Nc3ccc([N+](=O)[O-])cc3)C2C(=O)N1c1ccccc1 (stereo not drawn)
-1.06
O=C(NCc1ccccc1)[C@@]1(Cc2ccccc2)COC(c2ccc(OCCCO)cc2)=N1
-0.556

Provide each entry's z-score from the list below.
1. C=C(COC)/C(=C/C[C@@H](OC(C)=O)c1cccc(OCCO)c1)c1cc(C(=O)OC)ccc1OC
2. COCCOC(=O)N1C(=O)[C@@]2(c3cc(C#CCNC(N)=O)ccc31)[C@H](c1ccc(OCCO)cc1)N1[C@H](c3ccccc3)[C@H](c3ccccc3)OC(=O)[C@H]1[C@@H]2C(=O)Nc1nc2ccccc2s1
3. C=CCNC(=O)[C@H]1[C@@H]2C(=O)O[C@@H](c3ccccc3)[C@@H](c3ccccc3)N2[C@@H](c2ccc(O)cc2)[C@]12C(=O)Nc1ccc(C#CCNC(N)=O)cc12

[1.28, -0.211, -0.188]

* * *

Experiment: small-molecule microarray binders of probe aEGFR, primary screen, biochemical, biotinylated probe, 635/667 nm fluorescence (AID 1097);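 also: probe is a biotinylated anti-EGFR antibody binding compounds printed on slides; score combines fluorescence near 667 nm and signal to noise of each spot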
Settings: higher = more signal
Can you tell me composite z-score for the items I'm about to list?

Some entries whose results are on file:
COc1ccc([C@H]2C[C@H]3C(Br)=C[C@]2(OC)C(=O)[C@]32CO2)cc1
-0.151
C[C@@H]1NC(=O)[C@H](Cc2ccccc2)NC(=O)[C@@]23C(=O)N[C@@H](Cc4ccccc4)C2[C@H](C)[C@@]2(C)O[C@H]2C3/C=C/C/C=C\CNC1=O (some centres undefined)
-0.171
COC(=O)C1=CC(c2ccc(CO)cc2)=CC(c2cccs2)N(Cc2cccc(OC(F)(F)F)c2)C=C1C(=O)OC (centres undefined)
-0.0187

// moving on: another record for composite z-score
Any idea what its composite z-score is? The compound is "C=CC[C@@]1(C(=O)N2CCOCC2)N=C(c2ccc(OCCCO)cc2)O[C@@H]1c1ccccc1" -0.0728
